Values were extracted from patent US10907134B2.

- assay.notes: Luminescence activity of ZZ-fused KAZ mutants in crude enzyme solutions
- Assay type: biochemical
- run.conditions: Table 4; ZZ-fused (pCold-ZZ-P-); 1 μL crude enzyme solution, 1 mM DTT; 1 μg coelenterazine
Could you please mark met for values of Relative Luminescence Activity (Imax) below 7 and not met for values at or above it?

molecule="KAZ-L72Q: KAZ with single amino acid substitution L72Q (protein) FTLADFVGDWQQTAGYNQDQVLEQGGLSSLFQALGVSVTPIQKVVLSGENGLKADIHVIIPYEGLSGFQMGQIEMIFKVVYPVDDHHFKIILHYGTLVIDGVTPNMIDYFGRPYPGIAVFDGKQITVTGTLWNGNKIYDERLINPDGSLLFRVTINGVTGWRLCENILA" classification=met
molecule="KAZ-L27V: KAZ with single amino acid substitution L27V (protein) FTLADFVGDWQQTAGYNQDQVLEQGGVSSLFQALGVSVTPIQKVVLSGENGLKADIHVIIPYEGLSGFQMGLIEMIFKVVYPVDDHHFKIILHYGTLVIDGVTPNMIDYFGRPYPGIAVFDGKQITVTGTLWNGNKIYDERLINPDGSLLFRVTINGVTGWRLCENILA" classification=met
molecule="KAZ-V44I: KAZ with single amino acid substitution V44I, SEQ ID NO: 4 (protein) FTLADFVGDWQQTAGYNQDQVLEQGGLSSLFQALGVSVTPIQKIVLSGENGLKADIHVIIPYEGLSGFQMGLIEMIFKVVYPVDDHHFKIILHYGTLVIDGVTPNMIDYFGRPYPGIAVFDGKQITVTGTLWNGNKIYDERLINPDGSLLFRVTINGVTGWRLCENILA" classification=met
molecule="KAZ-Q18L: KAZ with glutamine at position 18 substituted by leucine (protein, listed as Oplophorus gracilirostris) FTLADFVGDWQQTAGYNLDQVLEQGGLSSLFQALGVSVTPIQKVVLSGENGLKADIHVIIPYEGLSGFQMGLIEMIFKVVYPVDDHHFKIILHYGTLVIDGVTPNMIDYFGRPYPGIAVFDGKQITVTGTLWNGNKIYDERLINPDGSLLFRVTINGVTGWRLCENILA" classification=met
molecule="KAZ-A54I: KAZ with single amino acid substitution A54I, SEQ ID NO: 6 (protein) FTLADFVGDWQQTAGYNQDQVLEQGGLSSLFQALGVSVTPIQKVVLSGENGLKIDIHVIIPYEGLSGFQMGLIEMIFKVVYPVDDHHFKIILHYGTLVIDGVTPNMIDYFGRPYPGIAVFDGKQITVTGTLWNGNKIYDERLINPDGSLLFRVTINGVTGWRLCENILA" classification="not met"
